Property: MIC Meropenem + inhibitor; scope: individual compounds
Tested on: E. coli JMI 2665
assay details: MIC, antibacterial and synergistic activity
Type: cell-based
protocol conditions: E. coli JMI 2665 (CMY-2 (Plasmid Cpase)); Meropenem + inhibitor at 4 µg/mL

Examples with their reported MIC Meropenem + inhibitor follow.
[[record]]
compound = "O=C(NO[C@H]1CCNC1)[C@@H]1CC[C@@H]2CN1C(=O)N2OS(=O)(=O)O [Ex. 1]"
result = "≤.031 µg/mL"

[[record]]
compound = "O=C(NNC(=O)[C@H]1CC[C@H]2CN1C(=O)N2OS(=O)(=O)O)C1CNC1 (stereo in doubt) [Ex. 9]"
result = "≤0.03 µg/mL"

[[record]]
compound = "O=C(NO[C@H]1CCCNC1)[C@@H]1CC[C@@H]2CN1C(=O)N2OS(=O)(=O)O [Ex. 2]"
result = "≤.031 µg/mL"


Proceed to the following item.
Record CC(=O)NNC(=O)[C@@H]1CC[C@@H]2CN1C(=O)N2OS(=O)(=O)O [Ex. 5] . Reported MIC Meropenem + inhibitor: ≤0.031 µg/mL

###

Property: MIC Aztreonam + inhibitor; scope: individual compounds
Test system: E. coli JMI 2665
assay details: MIC, antibacterial and synergistic activity
Assay type: cell-based
protocol conditions: E. coli JMI 2665 (CMY-2 (Plasmid Cpase)); Aztreonam + inhibitor at 4 µg/mL
Description: In the Tables 10 - 12, compounds herein disclosed were tested in combination with various antibiotics against metallo β-lactamase producing bacteria. Table 3: Synergy of the inhibitor Ex. 1 (4 µg/mL) in combination with antibiotics

Examples with their reported MIC Aztreonam + inhibitor follow.
[[record]]
compound = "NCCONC(=O)[C@@H]1CC[C@@H]2CN1C(=O)N2OS(=O)(=O)O"
target_of_assay = "E. coli JMI 2665"
result = "≤0.062 µg/mL"

[[record]]
compound = "CCC(=O)NNC(=O)[C@@H]1CC[C@@H]2CN1C(=O)N2OS(=O)(=O)O"
target_of_assay = "E. coli JMI 2665"
result = "≤0.062 µg/mL"

[[record]]
compound = "O=C(NNC(=O)[C@H]1CC[C@H]2CN1C(=O)N2OS(=O)(=O)O)C1CC1 (stereo in doubt)"
target_of_assay = "E. coli JMI 2665"
result = "≤0.062 µg/mL"

[[record]]
compound = "O=C(NNC(=O)[C@H]1CC[C@H]2CN1C(=O)N2OS(=O)(=O)O)C1CNC1 (stereo in doubt)"
target_of_assay = "E. coli JMI 2665"
result = "≤0.06 µg/mL"

[[record]]
compound = "O=C(NO[C@H]1CCCNC1)[C@@H]1CC[C@@H]2CN1C(=O)N2OS(=O)(=O)O"
target_of_assay = "E. coli JMI 2665"
result = "≤.062 µg/mL"


Record `O=C(NO[C@H]1CCNC1)[C@@H]1CC[C@@H]2CN1C(=O)N2OS(=O)(=O)O` . Reported MIC Aztreonam + inhibitor: ≤.062 µg/mL

Record `CC(=O)NNC(=O)[C@@H]1CC[C@@H]2CN1C(=O)N2OS(=O)(=O)O` . Reported MIC Aztreonam + inhibitor: ≤0.062 µg/mL

###

Tested on: P. aerug JMI 149
assay details: MIC, antibacterial and synergistic activity
Type: cell-based
protocol conditions: P. aerug JMI 149 (Bla+++D+); Ceftazidime + inhibitor at 4 µg/mL
property name: MIC Ceftazidime + inhibitor (µg/mL)
Return type: number; implicit unit µg/mL.

[[record]]
molecule = "O=C(NO[C@H]1CCCNC1)[C@@H]1CC[C@@H]2CN1C(=O)N2OS(=O)(=O)O [Ex. 2]"
units_of_measure = "µg/mL"
numeric_readout = 4


Record NCCONC(=O)[C@@H]1CC[C@@H]2CN1C(=O)N2OS(=O)(=O)O [Ex. 3] . Reported MIC Ceftazidime + inhibitor: 4

Record O=C(NNC(=O)[C@H]1CC[C@H]2CN1C(=O)N2OS(=O)(=O)O)C1CNC1 (stereo in doubt) [Ex. 9] . Reported MIC Ceftazidime + inhibitor: 16

Record O=C(NO[C@H]1CCNC1)[C@@H]1CC[C@@H]2CN1C(=O)N2OS(=O)(=O)O [Ex. 1] . Reported MIC Ceftazidime + inhibitor: 4

###

Tested on: E.coli JMI 4103
assay details: MIC, antibacterial and synergistic activity
Type: cell-based
protocol conditions: E.coli JMI 4103 (KPC-2, Tem-1, CMY-Type); Meropenem + inhibitor at 4 µg/mL
property name: MIC Meropenem + inhibitor

Examples with their reported MIC Meropenem + inhibitor follow.
[[record]]
compound = "O=C(NNC(=O)[C@H]1CC[C@H]2CN1C(=O)N2OS(=O)(=O)O)C1CNC1 (stereo in doubt) [Ex. 9]"
result = "0.06 µg/mL"

[[record]]
compound = "NCCONC(=O)[C@@H]1CC[C@@H]2CN1C(=O)N2OS(=O)(=O)O [Ex. 3]"
result = "≤0.0312 µg/mL"

[[record]]
compound = "CCC(=O)NNC(=O)[C@@H]1CC[C@@H]2CN1C(=O)N2OS(=O)(=O)O [Ex. 8]"
result = "≤0.0312 µg/mL"

[[record]]
compound = "O=C(NO[C@H]1CCNC1)[C@@H]1CC[C@@H]2CN1C(=O)N2OS(=O)(=O)O [Ex. 1]"
result = "≤.031 µg/mL"

[[record]]
compound = "O=C(NNC(=O)[C@H]1CC[C@H]2CN1C(=O)N2OS(=O)(=O)O)C1CC1 (stereo in doubt) [Ex. 7]"
result = "≤0.0312 µg/mL"


Record CC(=O)NNC(=O)[C@@H]1CC[C@@H]2CN1C(=O)N2OS(=O)(=O)O [Ex. 5] . Reported MIC Meropenem + inhibitor: ≤0.031 µg/mL

Record O=C(NO[C@H]1CCCNC1)[C@@H]1CC[C@@H]2CN1C(=O)N2OS(=O)(=O)O [Ex. 2] . Reported MIC Meropenem + inhibitor: ≤.031 µg/mL

###

Tested on: K. pneumo JMI 2681
assay details: MIC, antibacterial and synergistic activity
Format: cell-based
protocol conditions: K. pneumo JMI 2681 (Oxa-48 (Cpase)); substance alone; read-out: MIC
Property: MIC; scope: individual compounds
Return type: number; implicit unit µg/mL.

[[record]]
compound = "CC(=O)NNC(=O)[C@@H]1CC[C@@H]2CN1C(=O)N2OS(=O)(=O)O"
property_name = "MIC"
numeric_readout = 16


Proceed to the following item.
Record for C[C@@H](O)[C@H]1C(=O)N2C(C(=O)O)=C(S[C@@H]3CN[C@H](C(=O)N(C)C)C3)[C@H](C)[C@H]12 [Meropenem, meropenem, reference compound] under target or system K. pneumo JMI 2681: MIC reported as 64

###

System: K. pneumo JMI 2699
assay details: MIC, antibacterial and synergistic activity
Format: cell-based
protocol conditions: K. pneumo JMI 2699 (VIM-1, CTX-M3); Meropenem + inhibitor at 4 µg/mL
Property: MIC Meropenem + inhibitor; scope: individual compounds
Return type: number; implicit unit µg/mL.

[[record]]
compound = "O=C(NNC(=O)[C@H]1CC[C@H]2CN1C(=O)N2OS(=O)(=O)O)C1CNC1 (stereo in doubt) [Ex. 9]"
numeric_readout = 0.5

[[record]]
compound = "O=C(NO[C@H]1CCNC1)[C@@H]1CC[C@@H]2CN1C(=O)N2OS(=O)(=O)O [Ex. 1]"
numeric_readout = 2


Record CCC(=O)NNC(=O)[C@@H]1CC[C@@H]2CN1C(=O)N2OS(=O)(=O)O [Ex. 8] . Reported MIC Meropenem + inhibitor: 0.125

Record O=C(NNC(=O)[C@H]1CC[C@H]2CN1C(=O)N2OS(=O)(=O)O)C1CC1 (stereo in doubt) [Ex. 7] . Reported MIC Meropenem + inhibitor: 0.5

Record O=C(NO[C@H]1CCCNC1)[C@@H]1CC[C@@H]2CN1C(=O)N2OS(=O)(=O)O [Ex. 2] . Reported MIC Meropenem + inhibitor: 0.062

###

Test system: E. coli JMI 2692
assay details: MIC, antibacterial and synergistic activity
Format: cell-based
protocol conditions: E. coli JMI 2692 (NDM-1, TEM-1, CTX-M-15); Aztreonam + inhibitor at 4 µg/mL
property name: MIC Aztreonam + inhibitor

[[record]]
compound = "CC(=O)NNC(=O)[C@@H]1CC[C@@H]2CN1C(=O)N2OS(=O)(=O)O"
property_name = "MIC Aztreonam + inhibitor"
result = "≤0.062 µg/mL"


Record O=C(NNC(=O)[C@H]1CC[C@H]2CN1C(=O)N2OS(=O)(=O)O)C1CNC1 (stereo in doubt) . Reported MIC Aztreonam + inhibitor: 1 µg/mL

Record `O=C(NO[C@H]1CCCNC1)[C@@H]1CC[C@@H]2CN1C(=O)N2OS(=O)(=O)O` . Reported MIC Aztreonam + inhibitor: ≤.062 µg/mL

Record O=C(NNC(=O)[C@H]1CC[C@H]2CN1C(=O)N2OS(=O)(=O)O)C1CC1 (stereo in doubt) . Reported MIC Aztreonam + inhibitor: ≤0.062 µg/mL
